Attribution: ChEMBL document CHEMBL1129001

tgt: Prostaglandin G/H synthase 2 (Rattus norvegicus)
Sequence (P35355 whole entry): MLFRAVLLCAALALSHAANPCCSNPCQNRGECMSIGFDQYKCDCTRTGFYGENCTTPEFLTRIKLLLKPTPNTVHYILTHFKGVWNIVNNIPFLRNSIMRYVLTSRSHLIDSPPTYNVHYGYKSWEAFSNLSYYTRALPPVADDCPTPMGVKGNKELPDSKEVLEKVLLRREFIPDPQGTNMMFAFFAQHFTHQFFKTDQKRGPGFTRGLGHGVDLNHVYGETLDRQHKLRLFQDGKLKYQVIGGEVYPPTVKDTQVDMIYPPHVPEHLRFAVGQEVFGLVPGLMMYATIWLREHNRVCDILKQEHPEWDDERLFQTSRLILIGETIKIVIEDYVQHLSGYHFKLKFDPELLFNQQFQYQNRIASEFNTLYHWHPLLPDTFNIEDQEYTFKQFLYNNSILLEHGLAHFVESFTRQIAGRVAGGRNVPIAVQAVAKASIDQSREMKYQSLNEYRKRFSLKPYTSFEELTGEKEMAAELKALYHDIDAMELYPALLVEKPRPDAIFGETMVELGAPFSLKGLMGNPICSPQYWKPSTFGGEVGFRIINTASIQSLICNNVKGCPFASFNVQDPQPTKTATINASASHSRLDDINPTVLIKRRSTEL
pIC50: −log10 of the molar value.
Given measured pIC50, output label 1 if it is greater than or equal to 8 and label 0 if not.

| molecule | tgt | class.assignment |
| --- | --- | --- |
| COc1ccc2c(c1)c(CCC(C)C(=O)O)c(C)n2Cc1ccc(Br)cc1 (stereo unspecified) | Prostaglandin G/H synthase 2 (Rattus norvegicus) | label 1 |
| COc1ccc2c(c1)c([C@@H](C)[C@@H](C)C(=O)O)c(C)n2Cc1ccc(Br)cc1 | Prostaglandin G/H synthase 2 (Rattus norvegicus) | label 0 |
| COc1ccc2c(c1)c(C(C)C(=O)O)c(C)n2Cc1ccc(Cl)cc1 (stereo unspecified) | Prostaglandin G/H synthase 2 (Rattus norvegicus) | label 0 |
| COc1ccc2c(c1)c(CC(C)CC(=O)O)c(C)n2Cc1ccc(Br)cc1 (stereo unspecified) | Prostaglandin G/H synthase 2 (Rattus norvegicus) | label 1 |
| COc1ccc2c(c1)c(CC(C)C(=O)O)c(C)n2Cc1ccc(Br)cc1 (stereo unspecified) | Prostaglandin G/H synthase 2 (Rattus norvegicus) | label 1 |
